Recorded fold repression, one value per entry.
Target: T1, ECF17_1458
T1 chain: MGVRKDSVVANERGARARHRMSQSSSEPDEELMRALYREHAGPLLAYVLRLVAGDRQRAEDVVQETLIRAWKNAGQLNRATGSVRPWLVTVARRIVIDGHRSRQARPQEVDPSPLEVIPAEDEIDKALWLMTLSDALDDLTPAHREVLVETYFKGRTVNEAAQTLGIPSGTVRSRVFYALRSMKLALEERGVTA
Could you keep your reply to the number by itself?

Solved entries:
| binder | fold repression |
| --- | --- |
| AS03_1198 (protein) MDKDFDFDNIGKRTPYRTPDNFFEETQRKILERTVDEQRKKRRLKRIIPTVIAVAAVLAGILFTPSLRYMNTDTPSASNILAVDKNNVTTDPVDKWIKELSDEELEELVSFSENDIFLN | 0.894 |
| AS25_1645 (protein) MNESFSQRQTDGDRRRGGDLEMKKNHTSHQHHTDSETPMGHNFEQFQRLSAYFDGEATPAERKEIQHLLDTDPQVKQQYQQLRQLKQALQLLPIPTSISAQYLGQRVLARLRRSQLRTLSLWGSGAIAALFVAGVMGQMPRLNFDRFAKNDPDQQPTAALVETSPQGEEALVVALNRPVLQIPKLATTESP | 7.18 |

Req: Reported fold repression, binder AS22_1147 (protein) MELDDIAVAWRSLEQRLDQHAALAGQVLGDLRSHAARAHLRPLWLSQSAQLLCAIALSGLVAHSWLAFPEQAAAIVGGVLLQIWCVALAASAARQLWLLSQLDFARPLLQTQRALAQLRRWRTRVAPWLGVAFWVLWVAVADAAWRALTGRSLPYAWLLCNLLVGVLGGIGTWLGYRRLQRSGHPWLERLDTVHAGRSVARTETLLEQIARFQRE : ____
Resp: 2.2

Cited source: paper PMC3817407
